# protocol: Plasma and urine pharmacokinetics after TP300 infusion (LC-MS/MS, non-compartmental)
# Format: in vivo, human
# conditions: human, in vivo; TP300 12 mg/m^2; read-out: Plasma TP300 concentration 1 h after administration, mean
measured attribute: concentration at 1 h (ng/mL)
Numbers only, in ng/mL.

Data point: CCCCCN1C=Nc2cccc3nc4c(c1c23)Cn1c-4cc2c(c1=O)COC(=O)[C@@]2(CC)OC(=O)CN(C)C(=O)CN [TP300] ; concentration at 1 h = 18.4

====

# protocol: Plasma and urine pharmacokinetics after TP300 infusion (LC-MS/MS, non-compartmental)
# Format: in vivo, human
# conditions: human, in vivo, iv, tmax
measured attribute: Tmax (h)
Give bare numbers, in h.

Data point: CCCCCN1C=Nc2cccc3nc4c(c1c23)Cn1c-4cc2c(c1=O)COC(=O)[C@]2(O)CC [TP3076] ; Tmax = 1.26

====

# protocol: Plasma and urine pharmacokinetics after TP300 infusion (LC-MS/MS, non-compartmental)
# Assay type: in vivo, human
# conditions: human, in vivo, iv, t1/2
measured attribute: half-life
Please state the number and follow it with the unit.

Data point: CCCCCN1C(=O)Nc2cccc3nc4c(c1c23)Cn1c-4cc2c(c1=O)COC(=O)[C@]2(O)CC ; half-life = 6.92 h

====

# protocol: Plasma and urine pharmacokinetics after TP300 infusion (LC-MS/MS, non-compartmental)
# Assay type: in vivo, human
# conditions: human, in vivo; TP300 10 mg/m^2; read-out: Plasma TP300 concentration 1 h after administration, mean
measured attribute: concentration at 1 h (ng/mL)
Numbers only, in ng/mL.

Data point: CCCCCN1C=Nc2cccc3nc4c(c1c23)Cn1c-4cc2c(c1=O)COC(=O)[C@@]2(CC)OC(=O)CN(C)C(=O)CN ; concentration at 1 h = 7.37
